Ref: PubChem BioAssay (EPA / NIEHS)

Read-out: Interferon-gamma inducible Protein 10 (IP10), CXCL10 (gene 3627)
Method: BSK_KF3CT_IP10: BioMAP Diversity Plus: KF3CT Assay for Interferon-gamma inducible Protein 10 (IP10) Biomarker Activity (AID 2283068)
Conditions used: primary human keratinocytes with fibroblasts; actives raise or lower the signal
The source made the active and inactive calls. Rule for the calls: active = hit-call score of the fitted dose curve at least 0.9, where 1 is the maximum; inactive = score below 0.9.

Compound	outcome
OCCNCCO	inactive
O=C(O)[C@H](O)[C@@H](O)C(=O)O	inactive
CCCCCCOC(=O)CC(CC(=O)OCCCCCC)(OC(=O)CCC)C(=O)OCCCCCC	inactive

---

Measurement target: rat Glutamate, AMPA Site (AMPA), Gria1 (gene 50592) (UniProt P19490)
Sequence (P19490 whole entry, looked up): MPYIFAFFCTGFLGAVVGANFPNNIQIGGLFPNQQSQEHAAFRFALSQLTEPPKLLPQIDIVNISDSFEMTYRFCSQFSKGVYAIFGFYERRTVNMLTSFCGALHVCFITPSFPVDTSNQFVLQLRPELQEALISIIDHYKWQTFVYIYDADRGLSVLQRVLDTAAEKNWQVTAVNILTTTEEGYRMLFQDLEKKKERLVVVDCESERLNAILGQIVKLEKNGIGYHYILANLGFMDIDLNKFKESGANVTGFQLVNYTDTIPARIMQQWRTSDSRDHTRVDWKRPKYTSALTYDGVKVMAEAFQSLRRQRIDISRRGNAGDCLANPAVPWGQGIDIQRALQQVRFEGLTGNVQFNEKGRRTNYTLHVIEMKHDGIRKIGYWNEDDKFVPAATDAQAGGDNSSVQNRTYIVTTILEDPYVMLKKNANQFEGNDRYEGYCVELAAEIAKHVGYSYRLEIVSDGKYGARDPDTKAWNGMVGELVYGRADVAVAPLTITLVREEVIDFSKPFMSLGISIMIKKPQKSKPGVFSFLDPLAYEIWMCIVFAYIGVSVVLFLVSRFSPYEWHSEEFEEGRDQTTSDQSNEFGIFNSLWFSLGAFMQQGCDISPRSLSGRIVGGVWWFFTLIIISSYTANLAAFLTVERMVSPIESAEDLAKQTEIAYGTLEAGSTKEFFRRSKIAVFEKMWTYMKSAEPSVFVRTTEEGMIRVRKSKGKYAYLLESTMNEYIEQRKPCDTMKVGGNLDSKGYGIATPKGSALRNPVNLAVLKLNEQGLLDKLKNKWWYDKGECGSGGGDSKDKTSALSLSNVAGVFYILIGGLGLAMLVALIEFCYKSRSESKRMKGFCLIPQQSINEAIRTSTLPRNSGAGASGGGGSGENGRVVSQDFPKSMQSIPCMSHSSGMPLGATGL
Method: NVS_LGIC_rAMPA: NovaScreen (NVS) Ligand-Gated Ion Channel Assay for rat Glutamate, AMPA Site (AMPA) (AID 2283324)
Results filed as inconclusive are left out. Calls of active or inactive are those of the source. Rule for the calls: active = hit-call score of the fitted dose curve at least 0.9, where 1 is the maximum; inconclusive = response in the unintended direction; inactive = score below 0.9.
Property label: AC50

Compound	Measurement target	AC50
CCc1cccc(CC)c1N	rat Glutamate, AMPA Site (AMPA), Gria1 (gene 50592) (UniProt P19490)	inactive
O=C1CN(N=Cc2ccc([N+](=O)[O-])o2)C(=O)N1	rat Glutamate, AMPA Site (AMPA), Gria1 (gene 50592) (UniProt P19490)	inactive
COCc1nnc(-c2ccc[n+]([O-])c2)n1-c1c(Cl)c(Cl)cc2[nH]c(=O)c(=O)[nH]c12	rat Glutamate, AMPA Site (AMPA), Gria1 (gene 50592) (UniProt P19490)	12.6 µM (active)
OCCOCCOCCO	rat Glutamate, AMPA Site (AMPA), Gria1 (gene 50592) (UniProt P19490)	inactive

Could you now look at the following molecule, please?
API: value(readout= AC50, system= rat Glutamate, AMPA Site (AMPA), Gria1 (gene 50592) (UniProt P19490), query= CCN(CC)C(=S)SSC(=S)N(CC)CC ) inactive
